# Hepatotoxicity (time to onset) listing for each entry below
# Protocol Summary: Times to onset, minimal and maximal, observed in the indexed observations. [column 'DELAI' in source]
# Condition Description: human

Examples with their reported Hepatotoxicity (time to onset) follow.
Challenge: Would you kindly share the measured Hepatotoxicity (time to onset) for Cc1cc2c(s1)Nc1ccccc1N=C2N1CCN(C)CC1 ?
Response given: 13 days - 15 months

Challenge: What do you have for Nc1ccn([C@H]2CC[C@@H](CO)O2)c(=O)n1 ?
Response given: 3 weeks - 10 months

Challenge: Would you mind doing NC1=NC(=O)C(c2ccccc2)O1 (stereo not drawn) as well?
Response given: 3 days - 3 years

---
Challenge: Returns the measured Hepatotoxicity (time to onset) for the input compound. Input: O=c1cc[nH]c(=S)[nH]1
Response given: 1 day - 3 weeks

Challenge: Next entry: CCOC(=O)NNc1nncc2ccccc12
Response given: 11 days - 2 years

Challenge: For CC#C[C@]1(O)CC[C@H]2[C@@H]3CCC4=CC(=O)CCC4=C3[C@@H](c3ccc(N(C)C)cc3)C[C@@]21C then?
Response given: 3 months - 5 months

Challenge: Proceed to CC(=O)OCC(CCn1cnc2cnc(N)nc21)COC(C)=O
Response given: 12 weeks

Challenge: And CC1=C(/C=C/C(C)=C/C=C/C(C)=C\C(=O)O)C(C)(C)CCC1 ?
Response given: 4 months

Challenge: Same again, this time with NCCS
Response given: 2 weeks - 2 years

Challenge: Same thing, different compound: OC(Cn1cncn1)(Cn1cncn1)c1ccc(F)cc1F
Response given: 2 days - 10 months

Challenge: Let us now turn to CC[C@]1(O)C[C@@H]2CN(CCc3c([nH]c4ccccc34)[C@@](C(=O)OC)(c3cc4c(cc3OC)N(C)[C@H]3[C@@](O)(C(=O)OC)[C@H](OC(C)=O)[C@]5(CC)C=CCN6CC[C@]43[C@@H]65)C2)C1
Response given: 2 cures
